# Test system: Streptococcus pyogenes II D S-23
# Test Summary: Antimicrobial test in vitro (MIC, agar plate dilution method)
# Format: cell-based
# Set-up: unit not given here
# Assay Conditions: S. pyogenes II D S-23; 1×10^6 cells/ml
Readout Type: minimum inhibitory concentration (MIC)
One number for each entry.

Compound	Subject Of Test	minimum inhibitory concentration (MIC)
CC1Cc2c(N3CCN(C)CC3)c(F)c(N)c3c(=O)c(C(=O)O)cn1c23 (stereo not drawn) [Compound 1]	Streptococcus pyogenes II D S-23	3.13
CC1Cc2c(N3CCOCC3)c(F)c(N)c3c(=O)c(C(=O)O)cn1c23 (stereo not drawn) [Compound 3]	Streptococcus pyogenes II D S-23	12.5
CC1Cc2c(N3CCC(O)CC3)c(F)c(N)c3c(=O)c(C(=O)O)cn1c23 (stereo not drawn) [Compound 5]	Streptococcus pyogenes II D S-23	6.25
CC1Cc2c(N3CCNCC3)c(F)c(N)c3c(=O)c(C(=O)O)cn1c23 (stereo not drawn) [Compound 2]	Streptococcus pyogenes II D S-23	3.13
CC1Cc2c(N3CCCC3)c(F)c(N)c3c(=O)c(C(=O)O)cn1c23 (stereo not drawn) [Compound 6]	Streptococcus pyogenes II D S-23	6.25

Bench note, Streptococcus pyogenes II D S-23: CC1Cc2c(N3CCCCC3)c(F)c(N)c3c(=O)c(C(=O)O)cn1c23 (stereo not drawn) [Compound 4] , minimum inhibitory concentration (MIC) reads 25
